Data provenance: patent US20230365582A1

Measured IC50 by item
- Target under test: hEP4 (Homo sapiens)
- Construct: expressed in transfected cells; host or cells: HEK293
- Sequence (P35408 whole entry): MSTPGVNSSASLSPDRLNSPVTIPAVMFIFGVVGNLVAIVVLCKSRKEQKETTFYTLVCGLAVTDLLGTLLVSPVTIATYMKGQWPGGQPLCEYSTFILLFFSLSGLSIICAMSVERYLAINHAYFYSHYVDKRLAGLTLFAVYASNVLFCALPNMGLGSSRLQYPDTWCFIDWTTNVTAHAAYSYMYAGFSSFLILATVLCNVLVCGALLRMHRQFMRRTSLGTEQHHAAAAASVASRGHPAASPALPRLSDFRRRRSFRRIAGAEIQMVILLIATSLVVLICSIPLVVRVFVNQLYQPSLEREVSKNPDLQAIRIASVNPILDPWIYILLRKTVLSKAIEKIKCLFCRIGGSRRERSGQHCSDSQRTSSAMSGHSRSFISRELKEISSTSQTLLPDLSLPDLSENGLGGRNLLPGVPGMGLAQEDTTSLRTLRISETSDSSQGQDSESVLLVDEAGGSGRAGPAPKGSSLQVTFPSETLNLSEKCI
- Experiment description: hEP4 cAMP assay
- Assay type: cell-based
- Particulars: HEK293 cells overexpressing hEP4; PGE2 agonist 20 nM; graded per Table 21; read-out: IC50 (nM) EP4 cAMP
Observation type: IC50

Molecule: Cc1sc(C)c(C(=O)NC2CC3(C2)CC(C(=O)O)C3)c1Cc1ccc(N2CCOCC2)cc1 (stereo not shown) [Example 9]
Observation type: IC50
Result: > 10000 nM
--
Molecule: Cc1sc2ccn(CC#Cc3ccccc3)c2c1C(=O)NC1CC2(C1)CC(C(=O)O)C2 (stereo not shown) [Example 96]
Observation type: IC50
Result: 500 to 5000 nM
--
Molecule: COc1cc(C#N)cc(-c2ccc(Cc3c(C)sc(C)c3C(=O)NC3CC4(C3)CC(C(=O)O)C4)cc2)c1 (stereo not shown) [Example 41]
Observation type: IC50
Result: < 500 nM
--
Molecule: Cc1sc(C)c(C(=O)NC2CC3(C2)CC(C(=O)O)C3)c1Cn1cc(-c2ccccc2)cn1 (stereo not shown) [Example 78]
Observation type: IC50
Result: 5000 to 10000 nM
--
Molecule: O=C(N[C@H]1C[C@@H](C(=O)O)C1)c1csc2ccn(Cc3ccc(-c4ccccc4)cc3)c12 [Example 84]
Observation type: IC50
Result: > 10000 nM
--
Molecule: O=C(NC1CC2(C1)CC(C(=O)O)C2)c1csc2ccn(Cc3ccc(-c4cccc(F)c4)cc3)c12 (stereo not shown) [Example 92]
Observation type: IC50
Result: < 500 nM
--
Molecule: Cc1cn(Cc2ccc(-c3ccccc3)cc2)c2c(C(=O)NC3CC4(C3)CC(C(=O)O)C4)csc12 (stereo not shown) [Example 81]
Observation type: IC50
Result: > 10000 nM
--
Molecule: Cc1sc(C)c(C(=O)NC2CC3(C2)CC(C(=O)O)C3)c1Cc1ccc(-c2ccnc(O)c2)cc1 (stereo not shown) [Example 72]
Observation type: IC50
Result: > 10000 nM
--
Molecule: Cc1sc(C)c(C(=O)NC2CC3(C2)CC(C(=O)O)C3)c1Cc1ccc(-c2ccc(OC(F)(F)F)cc2)cc1 (stereo not shown) [Example 42]
Observation type: IC50
Result: 500 to 5000 nM
--
Molecule: Cc1scc(C(=O)NC2CC3(C2)CC(C(=O)O)C3)c1Cc1ccc(-c2ccccc2)cc1 (stereo not shown) [Example 20]
Observation type: IC50
Result: < 500 nM
